Molecular target: Solute carrier family 2, facilitated glucose transporter member 1 (Homo sapiens)
Assay: ST_JUDE_LEISH: Cytotoxicity at 2uM final concentration against transgenic Leishmania Mexicana promastigotes LmGLUT1 that are glucose transport deficient and complemented with the human glucose transporter GLUT1. Activity is measured by DNA content using SYBR green in vitro
Assay type: functional
Lab note: anything with inhibition at or over 3% counts as true (1); the rest go in false (0).

compound | assayed.system | class.assignment
CCn1c(-c2nonc2N)nc2c(-c3cccc(NC(=O)NC45CC6CC(CC(C6)C4)C5)c3)ncc(OCCCN)c21 | Solute carrier family 2, facilitated glucose transporter member 1 (Homo sapiens) | false (0)
CCCNC(=O)c1cncc(-c2ccc(CNC3Cc4ccccc4C3)cc2)c1 | Solute carrier family 2, facilitated glucose transporter member 1 (Homo sapiens) | false (0)
CC(C)CNCc1ccc(-c2cccc(CNC3CCN(Cc4ccccc4)CC3)c2)cc1 | Solute carrier family 2, facilitated glucose transporter member 1 (Homo sapiens) | true (1)
COc1ccc(-c2cccc(NC(=O)c3ccc(C#N)cc3)c2)cc1CN(C)CCN(C)C | Solute carrier family 2, facilitated glucose transporter member 1 (Homo sapiens) | false (0)
c1ccc(-c2cc(NCCCCCCCCNc3cc(-c4ccccc4)nc4ccccc34)c3ccccc3n2)cc1 | Solute carrier family 2, facilitated glucose transporter member 1 (Homo sapiens) | true (1)
O=C(NC1CCN(CC2(c3ccc(Cl)cc3)CCCCC2)CC1)c1cc[nH]n1 | Solute carrier family 2, facilitated glucose transporter member 1 (Homo sapiens) | true (1)
C#CC(C)(CO)N1CCCC1 (stereo not given) | Solute carrier family 2, facilitated glucose transporter member 1 (Homo sapiens) | false (0)
Cc1cccc2nc(-c3cccc(-c4ccc(NC(=O)Cc5ccon5)cc4)c3)[nH]c12 | Solute carrier family 2, facilitated glucose transporter member 1 (Homo sapiens) | true (1)
CNc1nc(Nc2ccccc2C)nc2ccccc12 | Solute carrier family 2, facilitated glucose transporter member 1 (Homo sapiens) | true (1)
COc1cc2nc(NCCn3ccnc3C)nc(NCCc3ccccc3)c2cc1OC | Solute carrier family 2, facilitated glucose transporter member 1 (Homo sapiens) | false (0)

---

// inhibition lookup, one value per entry
Target: Solute carrier family 2, facilitated glucose transporter member 1 (Homo sapiens)
Assay: ST_JUDE_LEISH: Cytotoxicity at 2uM final concentration against transgenic Leishmania Mexicana promastigotes LmGLUT1 that are glucose transport deficient and complemented with the human glucose transporter GLUT1. Activity is measured by DNA content using SYBR green in vitro
Type: functional

compound | unit.of.measurement | inhibition
CCCCCCNC(=O)C1Cc2c([nH]c3cc(Cl)ccc23)C2(CCN(Cc3ccccc3)CC2)N1 (centres undefined) | % | 7.27
O=C(Nc1ccc(-c2ccccc2)cc1)Nc1cccc(Cn2nc(Cl)c(N3CCCNCC3)cc2=O)c1 | % | 3.71
CN1CCC(Oc2cc(NC(=O)Nc3ccc(-c4ccncc4)c(Cl)c3)ccc2Cl)CC1 | % | 16
Cc1nc(N/C=C/c2ccc(O)cc2)cc(N2CCCC2)n1 | % | 8.44
CCN(CC)CCN(Cc1ccc(-c2ccc(C(F)(F)F)cc2)cc1)C(=O)Cn1c(SCc2ccc(F)c(F)c2F)nc(=O)c2c1CCC2 | % | 2.57
Cc1cc2[nH]c(-c3ccc(C(=O)NCCCN4CCN(c5cccc(Cl)c5)CC4)cc3)nc2cc1Cl | % | 1.69
CC(C)(C)OC(=O)NCc1ccc(Nc2nnc(-c3cccc(OCC(=O)NCc4cc(C(F)(F)F)cc(C(F)(F)F)c4)c3)o2)cc1 | % | 0.8
CCN(CC)CCCNCc1ccc(-c2ccc(C(F)(F)F)cc2)cc1 | % | 5.63
COc1ccc(NC(=O)Nc2cccc(-c3ccncc3)c2)cc1N1CCN(C)CC1 | % | 6.92

---

Molecular target: Solute carrier family 2, facilitated glucose transporter member 1 (Homo sapiens)
Assay: ST_JUDE_LEISH: Cytotoxicity at 2uM final concentration against transgenic Leishmania Mexicana promastigotes LmGLUT1 that are glucose transport deficient and complemented with the human glucose transporter GLUT1. Activity is measured by DNA content using SYBR green in vitro
Assay type: functional
measured.parameter: inhibition (%)

molecule | assayed.system | observed.result
N#Cc1ccc(N2CCN(Cc3ccc(-c4ccc(-c5nc6cc(C(F)(F)F)ccc6[nH]5)s4)cc3)CC2)nc1 | Solute carrier family 2, facilitated glucose transporter member 1 (Homo sapiens) | 2.33
Oc1ccc(CCCNc2nc(NCc3ccccc3-c3ccccc3)nc(NC3CCNCC3)n2)cc1 | Solute carrier family 2, facilitated glucose transporter member 1 (Homo sapiens) | -1.61
Cn1c(Nc2cc(C(C)(C)C)on2)nc2cc(Nc3ccnc(Nc4cccc(S(=O)(=O)N5CCOCC5)c4)n3)ccc21 | Solute carrier family 2, facilitated glucose transporter member 1 (Homo sapiens) | 5.63
C=CCOC1OC(COC(c2ccccc2)(c2ccccc2)c2ccccc2)C(OC(C)=O)C(OC(C)=O)C1NC(C)=O (centres undefined) | Solute carrier family 2, facilitated glucose transporter member 1 (Homo sapiens) | 1.33
Cc1ccc(NC(C)C(=O)Nc2ccc(C#N)cc2)cc1S(=O)(=O)N1CCCCC1 (centres undefined) | Solute carrier family 2, facilitated glucose transporter member 1 (Homo sapiens) | 58.5
CCOC(=O)c1ccc2[nH]c(-c3ccc(C(=O)NCc4ccc(C(C)(C)C)cc4)cc3)nc2c1 | Solute carrier family 2, facilitated glucose transporter member 1 (Homo sapiens) | 4.63
CCCc1cnc2nc(N)nc(N)c2c1C | Solute carrier family 2, facilitated glucose transporter member 1 (Homo sapiens) | -2.96
Cc1cc(NCC2CCN(CC3CCCCC3)C2)nc(Nc2ccc(Br)cc2)n1 (centres undefined) | Solute carrier family 2, facilitated glucose transporter member 1 (Homo sapiens) | 8.49
COc1nc2c(N3CCN(CCNCc4ccc5c(n4)NC(=O)CO5)CC3)ccnc2cc1F | Solute carrier family 2, facilitated glucose transporter member 1 (Homo sapiens) | 4.21
CC(Oc1cccc(Cl)c1)C(=O)N1CCc2ccccc21 (centres undefined) | Solute carrier family 2, facilitated glucose transporter member 1 (Homo sapiens) | -1.29
COc1cc(NC2=C(c3ccccc3)C(=O)c3ccccc32)ccn1 | Solute carrier family 2, facilitated glucose transporter member 1 (Homo sapiens) | 4.66
CC(=O)Nc1ccc(C(=O)Nc2cccc(-c3ccc(-c4nc5ccccc5[nH]4)s3)c2)cn1 | Solute carrier family 2, facilitated glucose transporter member 1 (Homo sapiens) | 4.38
O=C(Nc1cccc(-c2nn3ncccc3c2-c2ccnc(Nc3ccc(N4CCOCC4)cc3)n2)c1)c1c(F)cccc1F | Solute carrier family 2, facilitated glucose transporter member 1 (Homo sapiens) | 10.7
C=CCn1ccc2c3c(N)nc(N)nc3ccc21 | Solute carrier family 2, facilitated glucose transporter member 1 (Homo sapiens) | 66
CCC(C)c1ccc(NC(=O)Nc2ccnc3ccccc23)cc1 (centres undefined) | Solute carrier family 2, facilitated glucose transporter member 1 (Homo sapiens) | 2.93
Oc1ccc(Nc2nc(NCC3CCCO3)c3ccccc3n2)cc1 (centres undefined) | Solute carrier family 2, facilitated glucose transporter member 1 (Homo sapiens) | 7.56
CC1CN(c2cnn(Cc3cccc(NC(=O)Nc4ccc(F)cc4[N+](=O)[O-])c3)c(=O)c2Cl)CC(C)N1 (centres undefined) | Solute carrier family 2, facilitated glucose transporter member 1 (Homo sapiens) | -2.05
O=S(=O)(NCCN1CCCC1)c1ccc(-c2cccc(CNCc3ccc(F)cc3)c2)s1 | Solute carrier family 2, facilitated glucose transporter member 1 (Homo sapiens) | 6.73
CCN(CC)S(=O)(=O)c1cc(-c2ccc(=O)n(CC(=O)c3ccc(C)cc3)n2)ccc1C | Solute carrier family 2, facilitated glucose transporter member 1 (Homo sapiens) | 4.68
O=C(/C=C/c1ccc(Cl)c(Cl)c1)N1CCC(CN2CCC(Cc3c[nH]c4ccccc34)CC2)CC1 | Solute carrier family 2, facilitated glucose transporter member 1 (Homo sapiens) | 4.43
COc1ccc2ncc(F)c(CCN3CC(O)C(CNCc4ccc(F)cc4)C3)c2n1 (centres undefined) | Solute carrier family 2, facilitated glucose transporter member 1 (Homo sapiens) | 3.37
COc1cccc(OC)c1C(=O)Nc1cccc(-c2nn3ccccc3c2-c2ccnc(Nc3cccc(F)c3)n2)c1 | Solute carrier family 2, facilitated glucose transporter member 1 (Homo sapiens) | 6.78
CCNc1cc(C(=O)N[C@@H](Cc2ccccc2)[C@H](O)CNCc2cccc(OC)c2)c(OC)c(N2CCCCS2(=O)=O)c1 | Solute carrier family 2, facilitated glucose transporter member 1 (Homo sapiens) | 1.6
COc1ccccc1COc1c(C)nc(N)nc1N | Solute carrier family 2, facilitated glucose transporter member 1 (Homo sapiens) | -1.13
N=C(N)NN=CC(=O)Nc1cc([N+](=O)[O-])cc([N+](=O)[O-])c1 | Solute carrier family 2, facilitated glucose transporter member 1 (Homo sapiens) | 8.23
NCCCNc1nccc(N2CCc3ncnc(Nc4ccc(OCc5cccc(F)c5)c(Cl)c4)c3C2)n1 | Solute carrier family 2, facilitated glucose transporter member 1 (Homo sapiens) | 2.13
N=C(N)NN=Cc1ccc2c(c1)Cc1ccccc1-2 | Solute carrier family 2, facilitated glucose transporter member 1 (Homo sapiens) | 8.82
COc1ccc(C=Cc2cc(=N)c3ccccc3[nH]2)cc1 | Solute carrier family 2, facilitated glucose transporter member 1 (Homo sapiens) | 3.18
Cc1ccc(NC(=O)c2cccc(N3CCN(c4ccncc4)CC3)c2)cc1F | Solute carrier family 2, facilitated glucose transporter member 1 (Homo sapiens) | 10.8
CNCCNc1nccc(N2CCc3ncnc(Nc4ccc(OCc5cccc(F)c5)c(Cl)c4)c3C2)n1 | Solute carrier family 2, facilitated glucose transporter member 1 (Homo sapiens) | 3.85
O=C(Nc1cc(C(F)(F)F)cc(C(F)(F)F)c1)c1cccc([N+](=O)[O-])c1 | Solute carrier family 2, facilitated glucose transporter member 1 (Homo sapiens) | 3.73
CC(C)C1C(=O)N(S(C)(=O)=O)C2CCN(C(=O)c3ccc(CN4CCCCC4)c([N+](=O)[O-])c3)C12 (centres undefined) | Solute carrier family 2, facilitated glucose transporter member 1 (Homo sapiens) | 3.87
CCCN1CCN(CCCNc2c3ccccc3nc3ccccc23)CC1 | Solute carrier family 2, facilitated glucose transporter member 1 (Homo sapiens) | 73.1
Cc1ccc(-n2ncc(C(=O)Nc3cc(Cl)cc(Cl)c3)c2C2CCNCC2)cc1C | Solute carrier family 2, facilitated glucose transporter member 1 (Homo sapiens) | 3.26
CCc1ccc(NC(=O)c2ccc(CN3CCCN(Cc4cccc(C)c4)CC3)cc2)cc1 | Solute carrier family 2, facilitated glucose transporter member 1 (Homo sapiens) | 7.45
Cc1c(C(=O)N2CCCC(C(F)(F)F)C2)sc2cccc(F)c12 (centres undefined) | Solute carrier family 2, facilitated glucose transporter member 1 (Homo sapiens) | 8.1
Cc1cccc(-c2nn(-c3ccccc3)c3[nH]c(=O)c(CNC4CCCC4)cc23)c1 | Solute carrier family 2, facilitated glucose transporter member 1 (Homo sapiens) | 2.26
CN1CCN(Cc2nc(-c3ccc4c(Nc5ccc(F)c(O)c5)ccnc4c3)cs2)CC1 | Solute carrier family 2, facilitated glucose transporter member 1 (Homo sapiens) | 7.7
Clc1ccc(OC2CCC(Cn3ccnc3)(c3ccc(Cl)cc3Cl)CC2)c(Cl)c1 (centres undefined) | Solute carrier family 2, facilitated glucose transporter member 1 (Homo sapiens) | 6.14
